system: HCT-116; test: NCI screen antiproliferative activity, colon HCT-116; settings: Homo sapiens, HCT-116, 48 h, read-out: cytotoxicity (GI50) colon HCT-116, 48 h, sulforhodamine B, single determination; Table 1
Structures can show the parent of a compound that is named as a salt.
Parameter measured: GI50
Please append the unit to your numeric answer.

Examples from the recorded data:
{"Molecule": "COc1cc2c3c(n(CCCN(C)C)c(=O)c2cc1OC)-c1ncccc1C3=O [Compound 19, Hydrochloride]", "Test value": "1.58 µM"}
{"Molecule": "CN(C)CCCn1c2c(c3ccccc3c1=O)C(=O)c1cccnc1-2 [Compound 18, Hydrochloride]", "Test value": "0.41 µM"}

Query :: I'd like to know its GI50. The molecule in question is CC[C@@]1(O)C(=O)OCc2c1cc1n(c2=O)Cc2cc3ccccc3nc2-1 [Compound 1, camptothecin, reference compound]
Result :: 0.03 µM

Query :: I'd like to know its GI50. The molecule in question is COc1cc2c3c(n(CCCN(C)C)c(=O)c2cc1OC)-c1ccccc1C3=O [Compound 34, reference compound]
Result :: 2.45 µM

Query :: I'd like to know its GI50. The molecule in question is COc1cc2c3c(n(C)c(=O)c2cc1OC)-c1cc2c(cc1C3=O)OCO2 [Compound 2, reference compound]
Result :: 11.5 µM

Query :: I'd like to know its GI50. The molecule in question is CN(C)CCCn1c2c(c3ccccc3c1=O)C(=O)c1ccccc1-2 [Compound 33, reference compound]
Result :: 0.58 µM

====

tested on: HOP-62; assay: NCI screen antiproliferative activity, lung HOP-62
Each entry below carries its recorded GI50.
Please append the unit to your numeric answer.

Examples from the recorded data:
{"Compound": "COc1cnc2c(c1)C(=O)c1c-2n(CCCN(C)C)c(=O)c2ccccc12 [Compound 63]", "GI50": "300 nM"}
{"Compound": "COc1cc2c3c(n(CCCNCCO)c(=O)c2cc1OC)-c1ncccc1C3=O.Cl [Compound 31, Hydrochloride]", "GI50": "300 nM"}
{"Compound": "O=C1c2cccnc2-c2c1c1ccccc1c(=O)n2CCCn1ccnc1 [Compound 28]", "GI50": "7240 nM"}

Then this compound:
Query :: I'd like to know its GI50. The compound in question is CN(C)CCCn1c2c(c3ccc([N+](=O)[O-])cc3c1=O)C(=O)c1cccnc1-2.Cl [Compound 20, Hydrochloride]
Result :: 2350 nM

====

tested on: MCF7; assay: NCI screen antiproliferative activity, breast MCF7
Each entry below carries its recorded GI50.
Please append the unit to your numeric answer.

Examples from the recorded data:
{"Compound": "COc1cnc2c(c1)C(=O)c1c-2n(CCCN(C)C)c(=O)c2cc(OC)c(OC)cc12.Cl [Compound 55, Hydrochloride]", "GI50": "130 nM"}
{"Compound": "Cl.O=C1c2cccnc2-c2c1c1ccccc1c(=O)n2CCCN1CCOCC1 [Compound 21, Hydrochloride]", "GI50": "2750 nM"}
{"Compound": "CN(C)CCCn1c2c(c3ccc([N+](=O)[O-])cc3c1=O)C(=O)c1cccnc1-2.Cl [Compound 20, Hydrochloride]", "GI50": "360 nM"}
{"Compound": "COc1cnc2c(c1)C(=O)c1c-2n(CCCN(C)C)c(=O)c2ccccc12", "GI50": "210 nM"}

Query :: Entry Cl.O=C1c2cccnc2-c2c1c1ccccc1c(=O)n2CCCNCCO [Compound 30, Hydrochloride] , system MCF7: what GI50 was measured?
Result :: 480 nM
